Source listed as PubChem BioAssay (NCI).

Provide the reported TGI of each item.
# Test system: CAKI-1 renal
# Assay remarks: NCI tumour cell line growth inhibition, 48 h

(Q) Which TGI is listed for `CSC(N)=Nc1cccc2ccccc12` ?
(A) > 10 µM

(Q) Which TGI is listed for `CCOC(=O)Nc1nc2cc(OC)c(OC)c(OC)c2s1` ?
(A) > 100 µM

(Q) Which TGI is listed for `CCN(CC)S(=O)(=O)c1ccc2nc(NC(=O)OC)[nH]c2c1` ?
(A) > 100 µM

(Q) Which TGI is listed for `CCOC(=O)NN(C(=O)OCC)C(=C(c1ccccc1)N1CCOCC1)N(NC(=O)OCC)C(=O)OCC` ?
(A) > 100 µM

(Q) Which TGI is listed for O=C1NC(c2cccc3ccccc23)Nc2ccc(O)cc21 (stereo unspecified) ?
(A) > 144 µM

(Q) Which TGI is listed for CC1=CP(=O)(OC(C)C)CC(C)=C1Cl (stereo unspecified) ?
(A) > 100 µM

(Q) Which TGI is listed for `CCOC(=O)c1ccc2c(c1)c1c(C)c3cnccc3c(C)c1n2C` ?
(A) 0.859 µM

(Q) Which TGI is listed for `CCCCCCC[CH2][Sn]([Cl])([Cl])[CH2]CCCCCCC` ?
(A) 23.2 µM

(Q) Which TGI is listed for `Cc1ccc(-c2c(C#N)c(-c3ccccc3)c(C#N)c(=O)n2NS(=O)(=O)c2ccc(C)cc2)cc1` ?
(A) > 100 µM

(Q) Which TGI is listed for `Cc1cc2c(cc1C)[n+]([O-])c(NCCCN(C)C)c(C#N)[n+]2[O-]` ?
(A) > 100 µM

(Q) Which TGI is listed for `NS(=O)(=O)c1ccc(N=Nc2ncccc2O)cc1` ?
(A) > 100 µM

* * *

Provide the reported GI50 of each item.

(Q) GET /values?readout=GI50&system=SK-MEL-2 melanoma&item= COc1ccc(C2C(C#N)=C(N)Oc3c2sc2c(C)cccc32)cc1 (stereo not given)
(A) 3.33 µM

(Q) GET /values?readout=GI50&system=SK-MEL-2 melanoma&item= `CC(=O)N1CCN([C@H]2CCC[C@@H](NC(=O)c3cc4c(F)ccc(C)c4[nH]3)C2)CC1`
(A) 34.9 µM

(Q) GET /values?readout=GI50&system=SK-MEL-2 melanoma&item= `CC[C@H](Nc1cc(C)nc(N)n1)c1nc2cccc(NCc3ccc(C(=O)NO)cc3)c2c(=O)n1-c1ccccc1`
(A) 2.58 µM

(Q) GET /values?readout=GI50&system=SK-MEL-2 melanoma&item= `Cc1ccc(-c2c3c(nn2-c2ccc(S(=O)(=O)NC(=O)Nc4ccccc4)cc2)-c2ccccc2C3)cc1`
(A) 16.1 µM

(Q) GET /values?readout=GI50&system=SK-MEL-2 melanoma&item= `Cc1ccc2cc3c(N)c4c(C)ccc(C)c4nc3nc2c1`
(A) 14 µM

(Q) GET /values?readout=GI50&system=SK-MEL-2 melanoma&item= `O=C(Nc1ccc(OCc2nnc(-c3ccc(Cl)cc3)o2)c(F)c1)Nc1ccc(Cl)c(Cl)c1`
(A) 9.23 µM

(Q) GET /values?readout=GI50&system=SK-MEL-2 melanoma&item= `CC#CC#Cc1cccc(=O)o1`
(A) 3.73 µM

(Q) GET /values?readout=GI50&system=SK-MEL-2 melanoma&item= C=CCSSC1N=CNc2nc[nH]c21 (stereo not given)
(A) 6.11 µM

(Q) GET /values?readout=GI50&system=SK-MEL-2 melanoma&item= `O=C1C=CC(=O)C(c2cc(-c3ccc(Cl)cc3)nn2-c2ccccc2)=C1`
(A) 51.3 µM

(Q) GET /values?readout=GI50&system=SK-MEL-2 melanoma&item= `COc1ccc(/C(COc2ccc3c(c2)oc(=O)c2cc(OC)ccc23)=N/O)cc1`
(A) 15.2 µM
